studySystem: T1, PUF4 RNA-binding domain (Saccharomyces cerevisiae, UniProt P25339 537-888)
T1 sequence: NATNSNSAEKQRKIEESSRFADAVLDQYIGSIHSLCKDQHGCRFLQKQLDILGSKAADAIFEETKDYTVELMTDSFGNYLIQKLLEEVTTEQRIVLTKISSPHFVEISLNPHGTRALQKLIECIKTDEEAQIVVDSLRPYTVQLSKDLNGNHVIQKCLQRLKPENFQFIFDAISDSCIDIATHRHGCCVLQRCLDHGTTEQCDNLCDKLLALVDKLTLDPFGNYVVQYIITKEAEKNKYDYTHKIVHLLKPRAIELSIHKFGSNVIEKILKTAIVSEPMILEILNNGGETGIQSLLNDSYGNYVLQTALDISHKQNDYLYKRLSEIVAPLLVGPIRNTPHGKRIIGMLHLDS
assayInfo: Mg; RNA-MaP; 20 mM Na-HEPES pH 7.4, 30 mM KOAc, 0.75 mM MgCl2, 0.1% Tween-20, 5% glycerol, 0.1 mg/mL BSA, 2 mM DTT; 25 C; 0.0125-409.6 nM protein
recordedConditions: tags: N-His6-TEV cleaved; C-SNAP kept, Cy3B-labelled; label: tethered on chip by stalled RNA polymerase
The recorded Kd of each item maps onto one of these classes: band A: < 7 nM; band B: ≥ 7 nM and < 100 nM; band C: ≥ 100 nM

Below, 3 binders whose answers are already recorded.
[[record]]
binder = "Ic_S4_P5E.1_K5.1_C5.1_H5.1_A5.1_[T5C]_[T6G]_[A7T]_F5.1_[T8C]_[T9C]_[A10C]_T5.1 (ssRNA) RNA: UUUGACAACUGAUCGUUCUUUCUUGUACGUCCCUUCUUUCUCGAUCAGUUGUCUUU"
classlabel = "band C"

[[record]]
binder = "Id_ii_S2_P5E.2_K5.1_C5.2_[C-2A]_[T-1C]_H5.1_A5.1_F5.1_T5.2_[A12T] (ssRNA) RNA: UUUGAUUAAUAUGAUAUCGUUCUUUCUACUGUAUUAUUAUUUUCUUUCUCGAUAUCAUAUUAAUCUUU"
classlabel = "band A"

[[record]]
binder = "Id_ii_S4_P4E.3_K4.2_C4.2_[C-2T]_H4.2_A4.1_F4.1_T4.2_[G10T]_[T11A] (ssRNA) RNA: UUUGACAACUGAUCGUUCUUUCUUUUAUAUAUUAUAUUCUUUCUCGAUCAGUUGUCUUU"
classlabel = "band B"


Prompt: Note: place this binder into its band. Item: Ib_S2_P4E.1_K4.1_C4.1_H4.1_[A4C]_A4.1_[T7C]_F4.1_T4.1 (ssRNA) RNA: UUUGAUUAAUAUGAUAUCGUUCUUUCUUGUCUACUAUUCUUUCUCGAUAUCAUAUUAAUCUUU
Completion: band A

Prompt: Note: place this binder into its band. Item: Ic_S2_P5E.1_K5.1_C5.1_H5.1_A5.1_[A7C]_F5.1_[T9G]_[A10G]_T5.1 (ssRNA) RNA: UUUGAUUAAUAUGAUAUCGUUCUUUCUUGUAUUCUGGUUCUUUCUCGAUAUCAUAUUAAUCUUU
Completion: band B

Prompt: Note: place this binder into its band. Item: Ic_S4_P4E.1_K4.1_C4.1_H4.1_A4.1_[A6G]_F4.1_[T8A]_T4.1 (ssRNA) RNA: UUUGACAACUGAUCGUUCUUUCUUGUAUGUAAUUCUUUCUCGAUCAGUUGUCUUU
Completion: band B

Prompt: Note: place this binder into its band. Item: Ia_S4_P4E.1_K4.1_C4.1_H4.1_[G2C]_A4.1_F4.1_T4.1 (ssRNA) RNA: UUUGACAACUGAUCGUUCUUUCUUCUAUAUUAUUCUUUCUCGAUCAGUUGUCUUU
Completion: band C

Prompt: Note: place this binder into its band. Item: Ic_S4_P5E.1_K5.1_C5.1_H5.1_A5.1_[T6C]_[A7G]_F5.1_[T8A]_[A10C]_T5.1 (ssRNA) RNA: UUUGACAACUGAUCGUUCUUUCUUGUAUCGAUCUUCUUUCUCGAUCAGUUGUCUUU
Completion: band C

Where do the numbers come from? From paper PMC9352680.
